# Css (dose-normalized steady-state plasma concentration) annotations
assay: Steady-state plasma concentrations of BUP and metabolites in pregnancy; details: postpartum (PP) matched to T3, n=5; geometric mean [range]

Some compounds with known Css (dose-normalized steady-state plasma concentration) results, for comparison:
compound	val
C[C@H]1NC(C)(C)CO[C@]1(O)c1cccc(Cl)c1 [OH-BUP, hydroxybupropion]	13.3 [4.9–39.6] μM/g
CC(NC(C)(C)C)C(=O)c1cccc(Cl)c1 (stereo not drawn) [BUP, Bupropion, reference compound]	0.41 [0.11–1.1] μM/g
CC(NC(C)(C)C)C(O)c1cccc(Cl)c1 (stereo not drawn) [Erythro, erythrohydrobupropion]	0.80 [0.25–1.7] μM/g
C[C@H]1NC(C)(C)CO[C@]1(O)c1cccc(Cl)c1 [R,R-OH-BUP]	14.0 [5.5–35.7] μM/g
C[C@H](NC(C)(C)C)[C@@H](O)c1cccc(Cl)c1 [Threo, threohydrobupropion]	4.7 [1.2–10.8] μM/g

Now let's try a different one.
Looking up C[C@@H]1NC(C)(C)CO[C@@]1(O)c1cccc(Cl)c1 , I found its Css (dose-normalized steady-state plasma concentration) recorded as 0.64 [0.10–2.2] μM/g

---

assay: Steady-state plasma concentrations of BUP and metabolites in pregnancy; conditions: postpartum (PP) matched to T3, n=5; geometric mean [range]
The entries below come with measured metabolite/BUP steady-state concentration ratio values attached.

compound	val
C[C@H](NC(C)(C)C)[C@@H](O)c1cccc(Cl)c1 [Threo, threohydrobupropion]	11.5 [9.7–17.6]
CC(NC(C)(C)C)C(O)c1cccc(Cl)c1 (stereo not drawn) [Erythro, erythrohydrobupropion]	1.9 [1.2–3.2]
C[C@@H]1NC(C)(C)CO[C@@]1(O)c1cccc(Cl)c1 [S,S-OH-BUP]	1.6 [0.8–5.9]

Turning to the following compound.
// C[C@H]1NC(C)(C)CO[C@]1(O)c1cccc(Cl)c1 [R,R-OH-BUP] : metabolite/BUP steady-state concentration ratio value = 35.6 [15.2–77.2]

---

# Lookup of reported Css (dose-normalized steady-state plasma concentration) keyed by entry
experiment: Steady-state plasma concentrations of BUP and metabolites in pregnancy; conditions: postpartum (PP) matched to T2, n=5; geometric mean [range]

Worked cases, answers included:
molecule	val
C[C@@H]1NC(C)(C)CO[C@@]1(O)c1cccc(Cl)c1	0.78 [0.10–2.2] μM/g
C[C@H]1NC(C)(C)CO[C@]1(O)c1cccc(Cl)c1 [R,R-OH-BUP]	15.9 [5.5–35.7] μM/g
CC(NC(C)(C)C)C(=O)c1cccc(Cl)c1 (stereo not drawn) [BUP, Bupropion, reference compound]	0.53 [0.11–1.3] μM/g
C[C@H]1NC(C)(C)CO[C@]1(O)c1cccc(Cl)c1 [OH-BUP, hydroxybupropion]	16.3 [4.9–39.6] μM/g
CC(NC(C)(C)C)C(O)c1cccc(Cl)c1 (stereo not drawn) [Erythro, erythrohydrobupropion]	0.67 [0.25–1.7] μM/g

Then there is this molecule:
Css (dose-normalized steady-state plasma concentration) measured on C[C@H](NC(C)(C)C)[C@@H](O)c1cccc(Cl)c1 [Threo, threohydrobupropion] = 4.1 [1.2–10.8] μM/g

---

type: in vivo, human; details: at delivery, three subjects; mean±SE
Label Satisfied when umbilical cord venous plasma steady-state concentration is at or above 0.3 µM/g; otherwise label Not satisfied.

compound	category_label
CC(NC(C)(C)C)C(=O)c1cccc(Cl)c1 (centres unmarked) [BUP, Bupropion, reference compound]	Not satisfied
C[C@H](NC(C)(C)C)[C@@H](O)c1cccc(Cl)c1 [Threo, threohydrobupropion]	Satisfied
C[C@@H]1NC(C)(C)CO[C@@]1(O)c1cccc(Cl)c1 [S,S-OH-BUP]	Satisfied

Alright, here's another compound for you.
Inquiry: Hi team, for C[C@H]1NC(C)(C)CO[C@]1(O)c1cccc(Cl)c1 [R,R-OH-BUP] , is the recorded umbilical cord venous plasma steady-state concentration at or above 0.3 µM/g?
Reply text: Satisfied

---

Measured Css (dose-normalized steady-state plasma concentration), listed per entry.
assay: Steady-state plasma concentrations of BUP and metabolites in pregnancy; settings: second trimester (T2), n=5; geometric mean [range]

Would you please look over these solved cases?
molecule	val
C[C@@H]1NC(C)(C)CO[C@@]1(O)c1cccc(Cl)c1	0.73 [0.20–1.4] μM/g
C[C@H]1NC(C)(C)CO[C@]1(O)c1cccc(Cl)c1 [OH-BUP, hydroxybupropion]	15.1 [10.6–18.7] μM/g
CC(NC(C)(C)C)C(=O)c1cccc(Cl)c1 (stereo not drawn) [BUP, Bupropion, reference compound]	0.33 [0.08–1.2] μM/g
C[C@H]1NC(C)(C)CO[C@]1(O)c1cccc(Cl)c1 [R,R-OH-BUP]	15.8 [10.0–22.2] μM/g
CC(NC(C)(C)C)C(O)c1cccc(Cl)c1 (stereo not drawn) [Erythro, erythrohydrobupropion]	0.49 [0.33–0.78] μM/g

Proceed to the following item.
Kindly note the recorded Css (dose-normalized steady-state plasma concentration) for C[C@H](NC(C)(C)C)[C@@H](O)c1cccc(Cl)c1 [Threo, threohydrobupropion] , which is 3.4 [1.8–6.7] μM/g
